study-system: T1, Human 20.2 peptide (human)
T1 construct: synthetic peptide from the RB exon
T1 peptide: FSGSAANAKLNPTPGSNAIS
assay-remarks: recombinant antibody on peptide

binder	binding result
AB-CD45RB-XG2-439 (antibody, human IgG2, V domains shown, recombinant human IgG2 kappa; also called sc439) VH: QVQLVESGGGVVQPGRSLRLSCAASGFTFSNYGMHWVRQAPGKGLEWVAVIWYDGSKKFYADSVKGRFTISRDNSKNMQYLQMDSLRAEDTAVYYCARGGGDFDYWGQGILVTVSS VL: EIVMTQSPATLSVSPGERATLSCRASQNLSGKYLAWYQQKPGQAPSRLIYGTSTRATGVPARFSGSGSGTEFTLTISSLQSEDSAVYYCQQYNNWPPLTFGGGTKVEIK	no binding
AB-CD45RB-XG2-475 (antibody, human IgG2, V domains shown, recombinant human IgG2 kappa; also called sc475) VH: AVQLLESGGGLIQPGGSLRLSCAASGFTFSSYAMSWVRQAPGKGLEWVSAISGSGGSTFYADSVRGRFTISRDNSKNTLYLQMNSLRVEDTAVYYCAKEVMGPIFFDYWGQGTLVTVSS VL: EIVLTQSPGTLSLSPGERATLSCRASQSIISSALAWYQQKPGQAPRLLIYGASSRATGIPDRFSGSGSGTDFTLTISRLEPEDFAVYHCQQYGSTPLTFGGGTKVEIK	no binding
AB-CD45RB-XG2-636 (antibody, human IgG2, V domains shown, recombinant human IgG2 kappa; also called sc636) VH: QVHLVESGGGLVKPGGSLRLSCAASGFTFINYYMTWIRQAPGKGLEWVSYISLSGSTIYYADSVKGRFTISRDNAKNSLFLQMNSLRAEDTAVYYCARRAATVTTFDYWGQGTLVTVSS VL: EIVMTQSPATLSVSPGERATLSCRASQSVRSNLAWSQQKPGQAPRLLIYGASTRATGIPARFSGSGSGTEFTLTISSLQSEDFAVYYCQQYNNWPLTFGGGTKVEIK	no binding
